Give %Inh for every item shown.
# Tested on: RPS6KA5(Kin.Dom.1-N-terminal)
# Particulars: concentration: 1 μM, replicates: in singlicate; n = 1;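 further: KINOMEscan kinase panel screen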
One number for each entry, in %.

Previously resolved entries follow.
                                   molecule  value_measured
0  Cn1cc(-c2ccc3c(c2)CCN3C(=O)Cc2cc(F)cc(C(F)(F)F)c2)c2c(N)ncnc21 [GSK2635225]              23
1  Cl.Cl.NC(CNC(=O)c1cc(Br)c(-c2ccnc3[nH]ccc23)s1)c1ccccc1 (centres unmarked) [GSK1322949]              37
2  Cc1cccc(Nc2nc(NCCN)ncc2C(N)=O)c1 [GSK1292139]               0
3  CCNC(=O)/C=C/c1n[nH]c2cc(Sc3ccccc3C(=O)NC)ccc12               4
4  Fc1cc(Cl)ccc1Nc1ccnc2cc(-c3ccc(CN4CCSCC4)o3)ccc12 [GW560106]              23

// each molecule listed below needs its %Inh
1. Fc1cc(Cl)ccc1Nc1ccnc2cc(-c3ccc(CN4CCOCC4)o3)ccc12 [GW560109]
2. Cc1cccc(Nc2nc(N[C@H]3CCCC[C@H]3N)ncc2C(N)=O)c1.Cl [GSK986310]
3. Nc1ncnc2scc(-c3ccc(NC(=O)Cc4cc(F)ccc4F)cc3)c12.O=C(O)C(F)(F)F [SB-731254-M]
4. O=C(Nc1n[nH]c2nc(-c3ccccc3O)ccc12)C1CC1 [SB-711880]
5. Cc1ccc(Nc2ccnc(Nc3ccc(C)c(F)c3)n2)cc1O.Cl [GW582868]
6. CCn1c(-c2nonc2N)nc2c(-c3ccccc3)ncc(OCCCN)c21.O=C(O)C(F)(F)F.O=C(O)C(F)(F)F [GSK260205]
7. CN(C)CCNS(=O)(=O)c1ccc(-c2ccnc3[nH]ccc23)cc1 [GSK977620]

Reply:
9
22
8
0
0
31
44

// each molecule listed below needs its %Inh
1. CC(C)c1nc(-c2ccc(F)c(NS(=O)(=O)c3c(F)cccc3F)c2)c(-c2ccnc(Nc3ccc(N4CCOCC4)nc3)n2)s1 [GSK1804250]
2. c1ccc(Oc2ccc(Nc3ccnc4cc(-c5ccc(CN6CCCCC6)o5)ccc34)cc2)nc1 [GW567143]
3. CN(c1ccc(NC(=O)Nc2cccc(Cl)c2)cc1)c1ccnc(N)n1.Cl [GW830707]
4. CN1CCN(Cc2ccc(NC(=O)Nc3ccc(N(C)c4ccnc(Nc5ccc(CS(C)(=O)=O)cc5)n4)cc3)cc2)CC1.Cl [GW827654]
5. CC(C)c1nc(-c2cccc(NS(=O)(=O)c3c(F)cccc3F)c2)c(-c2ccnc(Nc3ccc(N4CCOCC4)nc3)n2)s1.Cl [GSK1723980]

Reply:
15
0
4
0
0

====

# Tested on: LTK
# Particulars: concentration: 1 μM, replicates: in singlicate; n = 1
Give %Inh for every item shown.
Give bare numbers, in %.

In [3]: df
Out[3]:
                                   compound  value_measured
0  Cc1ccc(NC(=O)c2ccc(Cl)c(Cl)c2)cc1-c1ccc(C(=O)Nc2ccncc2)cc1 [GSK1398460]              11
1  CC(C)c1nc(-c2ccc(F)c(NS(=O)(=O)c3c(F)cccc3F)c2)c(-c2ccnc(Nc3ccc(N4CCOCC4)nc3)n2)s1 [GSK1804250]               6
2  CS(=O)(=O)c1cccc(CNc2nc(Nc3ccc4c(c3)CCC(=O)N4)ncc2C(F)(F)F)c1               0
3  Cc1ccccc1CC(=O)N1CCc2cc(-c3cn(C)c4ncnc(N)c34)ccc21 [GSK2603346]              23
4  COc1ccc(C)c(Nc2ccnc(Nc3ccc(-c4cnc[nH]4)cc3)n2)c1.Cl [GW784041]              42
5  CC(C)c1nc(-c2cccc(NS(=O)(=O)c3c(F)cccc3F)c2)c(-c2ccnc(Nc3ccc(N4CCOCC4)nc3)n2)s1.Cl [GSK1723980]               0
6  Fc1cc(Cl)ccc1Nc1ccnc2cc(-c3ccc(CN4CCSCC4)o3)ccc12 [GW560106]              61
7  COc1cccc(CC(=O)N2CCc3cc(-c4cn(C)c5ncnc(N)c45)ccc32)c1 [GSK2608899]              36
8         CN(C)c1ncnc2nc[nH]c12 [SKF-31736]               0
9  CN(c1ccc(NC(=O)N2CCN(CCCN3CCOCC3)CC2)cc1)c1ccnc(Nc2ccc(CS(C)(=O)=O)cc2)n1.Cl [GW830899]               0

// each compound listed below needs its %Inh
1. Cl.Cl.NCC(NC(=O)c1cc(-c2cccnc2)c(-c2ccnc3[nH]ccc23)s1)c1ccccc1 (centres unmarked) [GSK1323434]
2. CN(c1ccc(F)c(NC(=O)c2cccc(OC(C)(C)C#N)c2Cl)c1)c1ccc2nc(NC(=O)C3CC3)sc2n1
3. O=C(Nc1n[nH]c2cc(-c3cccs3)ccc12)C1CC1 [SB-731284]
4. CCNC(=O)/C=C/c1n[nH]c2cc(Sc3ccccc3C(=O)NC)ccc12
5. Cn1cc(-c2ccc3c(c2)CCN3C(=O)Cc2cc(F)cc(F)c2F)c2c(N)ncnc21 [GSK2634140]

Reply:
1: 0; 2: 0; 3: 0; 4: 0; 5: 24

// each compound listed below needs its %Inh
1. CCNc1nccc(-c2c(-c3ccc(F)cc3)ncn2C2CCN(C)CC2)n1
2. Cc1ccc(-c2ccc3occ(-c4ccc(S(C)=O)cc4)c3c2)nn1 (centres unmarked)

Reply:
0
0

Values were extracted from paper PMC5540273.
